assay-summary: Metabolic stability in human hepatic microsome
Assay type: in vitro ADME
test-parameters: microsomes, pH 7.4; human hepatic microsome, NADPH(+); read-out: CL NADPH(+)
Starred links: 1 amine or outer side, 2 acyl side, 3 side chain; linkers in the order of their positions; H or OH if unused. Positions of bridges follow the written chain, without caps; N, C: chain ends. Non-standard residues stand in square brackets, D forms with d. Residues, ends and D or L forms follow the SMILES beside them. *: point of attachment. NEtPhe = CCN[C@@H](Cc1ccccc1)C(=O)O; NMeF = CN[C@@H](Cc1ccccc1)C(=O)O; NMeβAla = CN(CCC(=O)[*:2])[*:1]; NMeL = CN[C@@H](CC(C)C)C(=O)O; NMeA = CN[C@@H](C)C(=O)O; Piperidide = C1CCN(*)CC1; dNMeA = CN[C@H](C)C(=O)O; NPrGly = CCCNCC(=O)O; Sar = CNCC(=O)O; tBu = CC(C)(C)*
API: label(entry) gives label 1 if the entry's microsomal CLint at 1 uM is strictly smaller than 60 µL/min/mg; on equality or larger values it gives label 0.

Task item: Hello, is microsomal CLint at 1 uM of the following molecule strictly smaller than 60 µL/min/mg? CCCN1CC(=O)N(C)[C@@H](CC(C)C)C(=O)N[C@@H](COC(C)(C)C)C(=O)N(C)[C@@H](CC(C)C)C(=O)N[C@H](C(=O)N2CCCCC2)CC(=O)N[C@H](C)C(=O)N(C)[C@@H](C)C(=O)N(C)[C@@H](Cc2ccccc2)C(=O)N(C)[C@@H](CC(C)C)C(=O)N[C@@H]([C@@H](C)O)C1=O [DP-547] ([dA][NMeA][NMeF][NMeL]T[NPrGly][NMeL]S(tBu)[NMeL]D-Piperidide; lactam N-10)
Reply: label 1

Task item: Hello, is microsomal CLint at 1 uM of the following molecule strictly smaller than 60 µL/min/mg? CC[C@H](C)[C@H](NC(=O)[C@@H](NC(=O)[C@@H]1CC(=O)N(C)CCC(=O)N[C@@H](Cc2ccccc2)C(=O)N(C)[C@@H](Cc2ccccc2)C(=O)N(C)[C@@H](CC(C)C)C(=O)N[C@@H]([C@@H](C)O)C(=O)N(C)[C@@H](C)C(=O)N(C)[C@@H](CC(C)C)C(=O)N[C@@H](C(C)C)C(=O)N(C)[C@@H](CC(C)C)C(=O)N[C@@H](COC(C)(C)C)C(=O)N(C)[C@@H](CC(C)C)C(=O)N1)C(C)C)C(=O)N1CCCCC1 [DP-954] ([NMeβAla]F[NMeF][NMeL]T[NMeA][NMeL]V[NMeL]S(tBu)[NMeL]DVI-Piperidide; lactam N-12)
Reply: label 1

Task item: Hello, is microsomal CLint at 1 uM of the following molecule strictly smaller than 60 µL/min/mg? CC(C)C[C@H]1C(=O)N[C@@H]([C@@H](C)O)C(=O)N(C)[C@@H](C)C(=O)N[C@H](C(=O)N2CCCCC2)CC(=O)N(C)[C@@H](C)C(=O)N[C@@H](C)C(=O)N(C)[C@@H](Cc2ccccc2)C(=O)N(C)[C@@H](CC(C)C)C(=O)N[C@@H](Cc2ccccc2)C(=O)N1C [DP-150] ([NMeA]A[NMeF][NMeL]F[NMeL]T[NMeA]D-Piperidide; lactam N-9)
Reply: label 0

Task item: Hello, is microsomal CLint at 1 uM of the following molecule strictly smaller than 60 µL/min/mg? CCN1C(=O)[C@H](C)NC(=O)[C@H](Cc2ccccc2)N(C)C(=O)[C@H](CC(C)C)N(C)C(=O)[C@H](CC(C)C)NC(=O)[C@@H](C)N(C)C(=O)C[C@@H](C(=O)N2CCCCC2)NC(=O)[C@H](CC(C)C)N(C)C(=O)CN(C)C(=O)[C@H]([C@@H](C)O)NC(=O)[C@H](CC(C)C)N(C)C(=O)[C@@H]1Cc1ccccc1 [DP-637] ([dNMeA]L[NMeL][NMeF]A[NEtPhe][NMeL]T[Sar][NMeL]D-Piperidide; lactam N-11)
Reply: label 1

Task item: Hello, is microsomal CLint at 1 uM of the following molecule strictly smaller than 60 µL/min/mg? CC[C@H](C)[C@@H]1NC(=O)[C@H](CC(C)C)N(C)C(=O)[C@H](CC(C)C)NC(=O)[C@H](Cc2ccccc2)NC(=O)[C@H]([C@@H](C)O)NC(=O)[C@H](Cc2ccccc2)NC(=O)[C@@H](C)N(C)C(=O)C[C@@H](C(=O)N2CCCCC2)NC(=O)CNC(=O)[C@H](Cc2ccccc2)NC1=O [DP-431] ([dNMeA]FTFL[NMeL]IFGD-Piperidide; lactam N-10)
Reply: label 0
